Target: Tyrosine-protein phosphatase non-receptor type 1 (Homo sapiens, UniProt P18031)
Sequence (P18031 whole entry): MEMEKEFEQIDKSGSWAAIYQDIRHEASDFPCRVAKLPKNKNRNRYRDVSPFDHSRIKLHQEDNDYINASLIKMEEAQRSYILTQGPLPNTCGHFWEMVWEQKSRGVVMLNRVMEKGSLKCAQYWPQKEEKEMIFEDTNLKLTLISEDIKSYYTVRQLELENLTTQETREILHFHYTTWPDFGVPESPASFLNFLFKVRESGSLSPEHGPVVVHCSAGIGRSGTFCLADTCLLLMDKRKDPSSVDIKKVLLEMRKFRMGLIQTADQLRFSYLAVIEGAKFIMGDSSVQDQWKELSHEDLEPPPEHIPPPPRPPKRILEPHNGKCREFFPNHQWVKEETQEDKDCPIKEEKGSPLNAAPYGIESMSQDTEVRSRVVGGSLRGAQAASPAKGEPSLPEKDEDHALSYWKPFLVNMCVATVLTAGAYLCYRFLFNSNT
Experiment: Inhibition of human recombinant PTP1B

{"columns": ["STRUCTURE_NOTATION", "PREFIX_OPERATOR", "IC50 (µM)"],
 "data": [
  ["COc1ccc(/C=C/C(=O)c2ccc(O)cc2O)cc1", ">", 60],
  ["C[C@@H]1O[C@@H](O[C@H]2[C@H](Oc3cc(O)c4c(c3)O[C@H](c3ccc(O)cc3)CC4=O)O[C@H](CO)[C@@H](O)[C@@H]2O)[C@H](O)[C@H](O)[C@H]1O", ">", 60],
  ["O=C1C[C@@H](c2ccc(O)cc2)Oc2cc(O)ccc21", ">", 60],
  ["COc1c(CC=C(C)C)cc([C@@H]2CC(=O)c3c(O)cc(O)cc3O2)cc1CC=C(C)C", "=", 26.3],
  ["COc1cc(OC)c2c(=O)c(-c3ccc(O)cc3)coc2c1", ">", 60],
  ["CC1(C)C=Cc2c(cc3occ(-c4ccc(O)cc4)c(=O)c3c2O)O1", "=", 41.5],
  ["CC(C)=CCc1cc([C@@H]2CC(=O)c3ccc(O)cc3O2)cc(CC=C(C)C)c1O", "=", 16],
  ["COc1c(CC=C(C)C)cc(/C=C/C(=O)c2ccc(O)cc2O)cc1CC=C(C)C", "=", 14.8],
  ["COc1c(/C=C/C(C)(C)O)cc([C@@H]2CC(=O)c3ccc(O)cc3O2)cc1CC=C(C)C", ">", 60],
  ["COc1c(CC=C(C)C)cc([C@@H]2CC(=O)c3ccc(O)cc3O2)cc1CC=C(C)C", "=", 21.2],
  ["O=C(/C=C/c1ccc(O)cc1)c1ccc(O)cc1O", ">", 60],
  ["CC(C)=CCc1cc([C@@H]2CC(=O)c3c(O)cc(O)cc3O2)cc(CC=C(C)C)c1O", "=", 39.7],
  ["CC(C)=CCc1cc([C@@H]2CC(=O)c3c(O)cc(O)cc3O2)cc2c1OC(C)(C)C=C2", "=", 39.2]
]}

Every entry's value here was drawn from ChEMBL document CHEMBL1158101.
